Assay: Ester stability assay in buffer (RP-HPLC)
Type: physicochemical
Details: PBS buffer pH 7.4, 16 h, room temperature, 1 mM compound
Procedure: The prodrugs were evaluated for their stability in both PBS buffer at pH 7.4 and Tris buffer at pH 8.4. The compounds were dissolved in DMSO at a concentration of 40 mM and diluted with the respective buffer to a final concentration of 1 mM. Compounds were tested directly (t0) and subsequently every 2 h over a time period of 16 h by HPLC. […] The formation of the parent compound was evaluated and normalized by measuring the peak area at 214 nm and comparing it to the initial timepoint. […]
Experimental Endpoint: percentage of compound peak area present after 16 h of incubation, PBS (%)
Numbers only, in %.

Before answering, review these 2 worked examples.
>>> assay_value("COC(=O)[C@@H](N)CCN(C/C=C/c1ccc(C#N)cc1)C[C@H]1O[C@@H](n2cnc3c(N)ncnc32)[C@H](O)[C@@H]1O [Compound 12b]")
36.97
>>> assay_value("CCOC(=O)[C@@H](N)CCN(C/C=C/c1ccc(C#N)cc1)C[C@H]1O[C@@H](n2cnc3c(N)ncnc32)[C@H](O)[C@@H]1O [Compound 12c]")
68.36

Next molecule, please.
So what does the record say about percentage of compound peak area present after 16 h of incubation, PBS for CCOC(=O)[C@H](CCN(C/C=C/c1ccc(C#N)cc1)C[C@H]1O[C@@H](n2cnc3c(N)ncnc32)[C@H](O)[C@@H]1O)NC(=O)CC(C)(C)c1c(C)cc(C)cc1OC(C)=O [Compound 14c] ? 90.44

Every entry's value here was drawn from paper PMC8466754.
